This collection of values is drawn from patent US20230414794A1.

Would you kindly list pKi for each of these compounds?
tested_target: PSMA (Homo sapiens (Human))
Sequence (Q04609 whole entry): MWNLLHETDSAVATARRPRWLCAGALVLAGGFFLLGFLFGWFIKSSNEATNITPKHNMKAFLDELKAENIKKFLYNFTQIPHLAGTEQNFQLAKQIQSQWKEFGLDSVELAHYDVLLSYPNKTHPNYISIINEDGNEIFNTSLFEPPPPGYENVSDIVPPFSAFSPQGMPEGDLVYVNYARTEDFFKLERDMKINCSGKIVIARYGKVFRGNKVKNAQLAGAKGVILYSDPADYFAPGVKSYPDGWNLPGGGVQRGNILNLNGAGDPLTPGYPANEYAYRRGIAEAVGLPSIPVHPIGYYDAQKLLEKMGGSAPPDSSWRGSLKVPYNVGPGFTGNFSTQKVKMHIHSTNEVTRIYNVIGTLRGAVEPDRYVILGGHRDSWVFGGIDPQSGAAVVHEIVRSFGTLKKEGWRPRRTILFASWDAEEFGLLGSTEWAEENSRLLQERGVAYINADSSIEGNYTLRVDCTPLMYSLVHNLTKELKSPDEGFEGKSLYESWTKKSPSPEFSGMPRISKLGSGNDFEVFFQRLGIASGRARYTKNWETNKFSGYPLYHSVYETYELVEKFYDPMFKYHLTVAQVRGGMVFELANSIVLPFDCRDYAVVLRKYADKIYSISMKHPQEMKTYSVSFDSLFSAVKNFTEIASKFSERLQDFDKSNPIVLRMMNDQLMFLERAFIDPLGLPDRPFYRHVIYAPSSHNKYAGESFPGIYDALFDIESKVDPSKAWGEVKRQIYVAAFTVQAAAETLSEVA
method: PSMA inhibitory activity (NAAG hydrolysis by LNCaP cell lysate, Amplex Red glutamate detection)
conditions: LNCaP cell lysate, NAAG substrate, Ki by Cheng-Prusoff equation
Formally, pKi is defined as -log10 of the concentration c, with c in mol/L.

INPUT: What does the data say about its pKi? Entry: CC(C)C[C@H](NC(=O)N[C@@H](CNC(=O)C(=O)O)C(=O)O)C(=O)O
OUTPUT: 8.24

INPUT: What do we get for O=C(N[C@@H](CCCCNC(=O)c1ccc(I)cc1)C(=O)O)N[C@@H](CNC(=O)C(=O)O)C(=O)O ?
OUTPUT: 10.10

INPUT: What about this compound? Nc1ccc2c(CC(=O)NCCCC[C@H](NC(=O)N[C@@H](CNC(=O)C(=O)O)C(=O)O)C(=O)O)cc(=O)oc2c1
OUTPUT: 8.22
